- Assay Explanation: Quantitative High-Throughput drug screen in 47 multiple myeloma cell lines against the NCATS MIPE library collection: KMS26_JCRB cell viability assay (AID 1918975); further: nearly all actives have a fitted effect of over 45% in size; further: potency means the concentration at half of the fitted maximal effect
- Details: KMS26 myeloma cells viability, CellTiter-Glo ATP, 48 h; series mostly up to 45.8 µM
Records with an inconclusive call do not appear. The source made the active and inactive calls. The call rests on the fitted dose curve; in most records, active means well fitted cell-killing curve with a large enough effect; inconclusive means small, poorly fitted or top-dose-only effect, or effect the other way; inactive means no such curve, though single readings can be large or run the other way.
Value Kind: Potency

Check out these entries, answers already filled in.
1) Cn1c(CCCC(=O)O)nc2cc(N(CCCl)CCCl)ccc21 = 5.9 µM (active)
2) COC1(CS(=O)c2ccccc2)CCN(CCc2c[nH]c3ccc(F)cc23)CC1 (stereo unspecified) = inactive
3) C#CCN(C)[C@H](C)Cc1ccccc1 = inactive
4) Cc1cccc(C)c1NC(=O)CN1CCCC1=O = inactive

Input line: GET /values?readout=Potency&item= CN(C)CCN(C)CCc1ccc(Cl)c(Cl)c1
Output line: inactive

Input line: GET /values?readout=Potency&item= O=P1(NCCCl)OCCCN1CCCl (stereo unspecified)
Output line: inactive

Input line: GET /values?readout=Potency&item= CN1CCN(C(=O)O[C@H]2c3nccnc3C(=O)N2c2ccc(Cl)cn2)CC1
Output line: inactive

Input line: GET /values?readout=Potency&item= N[C@@H](Cc1ccc(N(CCCl)CCCl)cc1)C(=O)O
Output line: 23.5 µM (active)

Input line: GET /values?readout=Potency&item= Fc1ccc(C(OCCN2CCN(CCCc3ccccc3)CC2)c2ccc(F)cc2)cc1
Output line: 16.6 µM (active)

Input line: GET /values?readout=Potency&item= Cc1cc(SCc2sc(-c3ccc(C(F)(F)F)c(F)c3)nc2C)ccc1OCC(=O)O
Output line: 4.69 µM (active)

Input line: GET /values?readout=Potency&item= O=C(O)C(=O)c1cn(Cc2ccccc2)c2ccc(-c3ccc(OC(F)(F)F)cc3)cc12
Output line: inactive
